# Test system: A. baumannii ATCC 19606
# Assay type: cell-based
# protocolConditions: ATCC 19606
Square brackets hold non-standard residues; d marks the D form. Peptide text beside a SMILES is read from it. Bip = N[C@@H](Cc1ccc(-c2ccccc2)cc1)C(=O)O; 2Nal = N[C@@H](Cc1ccc2ccccc2c1)C(=O)O; Dab = NCC[C@H](N)C(=O)O; AEEA = NCCOCCOCC(=O)O
# Minimum inhibitory concentration AB values compiled below
Give the quantity in µg/mL, number only.

Sample records with Minimum inhibitory concentration AB:
N=C(N)NCCC[C@@H]1NC(=O)[C@H](CCN)NC(=O)[C@H](Cc2ccc3ccccc3c2)NC(=O)[C@H](CCN)NC(=O)[C@H](CC(N)=O)NC(=O)[C@H](CCN)NC(=O)[C@H](Cc2ccc3ccccc3c2)NC(=O)COCCOCCNC(=O)[C@H](Cc2ccc(-c3ccccc3)cc2)NC1=O [compound 12] (cyclo([Dab][2Nal][Dab]R[Bip][AEEA][2Nal][Dab]N)) = 32
NCCCC[C@@H]1NC(=O)[C@H](Cc2ccccc2)NC(=O)COCCOCCNC(=O)[C@H](Cc2ccc(-c3ccccc3)cc2)NC(=O)[C@H](CCCCN)NC(=O)[C@H](CCCCN)NC(=O)[C@H](Cc2ccc3ccccc3c2)NC(=O)[C@H](CCCCN)NC(=O)[C@H](CC(N)=O)NC1=O [compound 7] (cyclo(K[2Nal]KK[Bip][AEEA]FKN)) = 64

Now let's try a different one.
// Minimum inhibitory concentration AB value for N=C(N)NCCC[C@@H]1NC(=O)[C@H](CC(N)=O)NC(=O)[C@H](CCN)NC(=O)[C@H](Cc2ccc3ccccc3c2)NC(=O)COCCOCCNC(=O)[C@H](Cc2ccc(-c3ccccc3)cc2)NC(=O)[C@H](CCN)NC(=O)[C@H](CCN)NC(=O)[C@H](Cc2ccc3ccccc3c2)NC1=O [compound 10] (cyclo(R[2Nal][Dab][Dab][Bip][AEEA][2Nal][Dab]N)) : 32
